Source of measurements: paper PMC9605374

Tested on: MRC-9
test-method-notes: MTT assay, cell viability
Type: cell-based
condition-label: Homo sapiens, MRC9, MRC-9, 48 h of treatment, mean ± SD
test-readout: pIC50
Kindly note that pIC50 refers to -log10 of the concentration in mol/L and answer with the value alone.

Challenge: Report pIC50 for COc1ccc(C2SSC34CC5(O)C(Cl)C=CC(O)C5ON3C(=O)C2N(C)C4=O)c(O)c1OC (centres unmarked) [NB, N-methylpretrichodermamide B]
Response given: 4.95

----------
System: LNCaP
test-method-notes: MTT assay, cell viability
Format: cell-based
condition-label: Homo sapiens, 48 h of treatment, mean ± SD
From the text: To examine the anticancer potential and selectivity of NB, we used a panel of six human prostate cancer cell lines, harboring different levels of treatment resistance to representatively reflect the heterogeneity of the disease. […] Additionally, four human noncancer cells lines were utilized in order to determine the selectivity of NB towards prostate cancer cells, i.e., prostate noncancer PNT2 and RWPE-1 cells, human embryonic kidney HEK 293T cells, and human fibroblasts MRC-9. […]
test-readout: pIC50
Kindly note that pIC50 refers to -log10 of the concentration in mol/L and answer with the value alone.

Challenge: Report pIC50 for COc1ccc(C2SSC34CC5(O)C(Cl)C=CC(O)C5ON3C(=O)C2N(C)C4=O)c(O)c1OC (stereo not shown) [NB, N-methylpretrichodermamide B]
Response given: 4.92

----------
Tested on: 22Rv1
test-method-notes: MTT assay, cell viability
Assay type: cell-based
condition-label: Homo sapiens, 22Rv1, 48 h of treatment, mean ± SD
Assign pIC50 to each entry below.
Kindly note that pIC50 refers to -log10 of the concentration in mol/L and answer with the value alone.

Challenge: Report pIC50 for COc1ccc(C2SSC34CC5(O)C(Cl)C=CC(O)C5ON3C(=O)C2N(C)C4=O)c(O)c1OC (centres unmarked) [NB, N-methylpretrichodermamide B]
Response given: 5.52

Challenge: Report pIC50 for CC(=O)O[C@@]12CO[C@@H]1C[C@H](O)[C@@]1(C)C(=O)[C@H](O)C3=C(C)[C@@H](OC(=O)[C@H](O)[C@@H](NC(=O)OC(C)(C)C)c4ccccc4)C[C@@](O)([C@@H](OC(=O)c4ccccc4)[C@H]21)C3(C)C [Docetaxel, docetaxel, reference compound]
Response given: 9.22
